# target.desc: CDK9/CycT1 (Homo sapiens (Human), UniProt P50750)
# Sequence (P50750 whole entry): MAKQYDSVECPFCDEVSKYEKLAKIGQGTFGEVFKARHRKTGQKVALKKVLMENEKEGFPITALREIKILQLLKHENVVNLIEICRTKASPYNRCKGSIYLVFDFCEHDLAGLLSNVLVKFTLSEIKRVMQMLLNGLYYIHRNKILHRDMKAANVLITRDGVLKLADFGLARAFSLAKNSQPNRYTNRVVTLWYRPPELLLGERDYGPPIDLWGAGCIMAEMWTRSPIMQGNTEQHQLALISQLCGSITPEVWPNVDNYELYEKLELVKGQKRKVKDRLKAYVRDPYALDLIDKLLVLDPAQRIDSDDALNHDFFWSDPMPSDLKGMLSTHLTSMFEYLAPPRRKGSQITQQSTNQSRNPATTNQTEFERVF
# Sequence (O60563 whole entry partner): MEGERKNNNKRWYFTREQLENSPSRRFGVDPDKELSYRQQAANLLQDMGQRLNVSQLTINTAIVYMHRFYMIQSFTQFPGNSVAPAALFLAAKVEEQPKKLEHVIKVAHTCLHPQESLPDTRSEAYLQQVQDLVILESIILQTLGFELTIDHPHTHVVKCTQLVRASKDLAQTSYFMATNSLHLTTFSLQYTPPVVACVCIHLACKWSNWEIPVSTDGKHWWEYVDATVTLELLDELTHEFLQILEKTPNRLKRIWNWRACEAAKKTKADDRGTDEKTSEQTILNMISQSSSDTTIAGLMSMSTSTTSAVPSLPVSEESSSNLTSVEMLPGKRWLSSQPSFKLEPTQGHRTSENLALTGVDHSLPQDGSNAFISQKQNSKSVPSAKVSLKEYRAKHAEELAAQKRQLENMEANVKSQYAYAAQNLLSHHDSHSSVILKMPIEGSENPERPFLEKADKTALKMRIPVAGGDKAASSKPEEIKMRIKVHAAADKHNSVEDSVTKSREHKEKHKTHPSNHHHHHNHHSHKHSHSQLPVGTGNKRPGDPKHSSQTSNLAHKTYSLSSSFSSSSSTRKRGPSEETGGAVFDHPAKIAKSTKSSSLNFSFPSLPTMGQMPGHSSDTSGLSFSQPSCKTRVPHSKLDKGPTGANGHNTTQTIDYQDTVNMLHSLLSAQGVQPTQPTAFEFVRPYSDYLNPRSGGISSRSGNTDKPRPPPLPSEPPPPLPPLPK
# assay.details: CDK9 kinase assay, high ATP concentration (5 mM ATP)
# Type: biochemical
# experimental.conditions: 1.5 nM CDK9, read-out: CDK9 High ATP conc. (IC50)
So I've got a bunch of molecules here, and I need their IC50 values.
Value expressed in nM; do not type the unit.

Asked: Record lookup: for CDK9/CycT1 (Homo sapiens (Human), UniProt P50750), what IC50 belongs to CC(=O)N[C@@H]1CCC[C@H](C(=O)Nc2cc(-c3cnn4c3CCCC4)ncn2)C1 ?
Given back: 4710

Asked: Then CC(=O)N[C@@H]1CCC[C@H](C(=O)Nc2cc(-c3cn[nH]c3CCCCO)c(Cl)cn2)C1 [Example 78a] ?
Given back: 85

Asked: CC1(C)Cc2c(-c3cc(NC(=O)[C@H]4CCC[C@@H](NC(=O)[C@H]5CCOC5)C4)ncc3Cl)cnn2C1 , same question.
Given back: 4

Asked: Same question for N#CCC(=O)N[C@@H]1CCC[C@H](C(=O)Nc2cc(-c3cnn4c3CCCC4)c(Cl)cn2)C1 please.
Given back: 12

Asked: Same read-out for O=C(Nc1cc(-c2cnc3n2CCCC3)c(Cl)cn1)[C@@H]1CCCNC1 ?
Given back: 4500

Asked: Input O=C(N[C@@H]1CCC[C@H](C(=O)Nc2cc(-c3cnn4c3CCCC4)c(Cl)cn2)C1)C1COC1
Given back: 19

* * *

Assign IC50 to each entry below.
# target.desc: CDK9/CycT1 (Homo sapiens (Human))
# assay.details: CDK9 kinase assay, high ATP concentration (5 mM ATP)
# Format: biochemical
# experimental.conditions: 1.5 nM CDK9, read-out: CDK9 High ATP conc. (IC50)
Just the number in nM, nothing appended.

Asked: Can you look up the measured IC50 of CC(C)(C)OC(=O)N[C@@H]1CCC[C@H](C(=O)Nc2cc(-c3cnn4c3CCCC4)c(Cl)cn2)C1 [Example 31a] for me?
Given back: 16

Asked: # repeat for O=C(Nc1cc(-c2cnn3c2CCCC3)c(Cl)cn1)[C@H]1CCC[C@@H](NC(=O)[C@@H]2CCCO2)C1 [Example 35]
Given back: 23

Asked: Now give it for COC1CCc2c(-c3cc(NC(=O)[C@H]4CCC[C@@H](NC(C)=O)C4)ncc3Cl)cnn2C1 (single isomer, unassigned) [Example 71] too.
Given back: 1720

Asked: And what about the molecule O=C(Nc1cc(-c2cnn3c2CCCC3)ccn1)[C@H]1C[C@@H](O)C1 [Example 6] ?
Given back: 750

Asked: And the next one, CC(=O)N[C@@H]1CCC[C@H](C(=O)Nc2cc(-c3cnn4c3COCC4)c(Cl)cn2)C1 [Example 11] ?
Given back: 1200

Asked: Now the same for CC(=O)N[C@@H]1CCC[C@H](C(=O)Nc2cc(-c3cnn4c3CC(C)(C)C4)c(F)cn2)C1 [Example 25]
Given back: 4

Asked: One more molecule: CC(=O)N[C@@H]1CCC[C@H](C(=O)Nc2cc(-c3cnn4c3C(O)C(C)(C)C4)c(Cl)cn2)C1 (single isomer, unassigned) [Example 80]
Given back: 135

Asked: And then CC1(C)Cc2c(-c3ccnc(NC(=O)[C@H]4CCC[C@@H](NC(=O)C5COC5)C4)c3)cnn2C1 [Example 18] , what is it?
Given back: 14

Asked: Check CC(=O)N[C@@H]1CCC[C@H](C(=O)Nc2cc(-c3cnn4c3CCC(C)C4)c(Cl)cn2)C1 (single isomer, unassigned) [Example 68] too.
Given back: 53

Asked: Param item: COC1CCn2ncc(-c3cc(NC(=O)[C@H]4CCC[C@@H](NC(C)=O)C4)ncc3Cl)c2C1 (single isomer, unassigned) [Example 73]
Given back: 39

Asked: Also CC(=O)N[C@@H]1CCC[C@H](C(=O)Nc2cc(-c3cnn4c3CC(C)C4)c(Cl)cn2)C1 (some centres unmarked) [Example 40] , if possible.
Given back: 28

Asked: Follow-up item: CC1(C)Cc2c(-c3cc(NC(=O)[C@H]4CCC[C@@H](N)C4)ncc3F)cnn2C1 [Example 54]
Given back: 777

Asked: Follow-up entry: CC(=O)N[C@@H]1CCC[C@H](C(=O)Nc2cc(-c3cnn4c3NCCC4)c(Cl)cn2)C1 [Example 15]
Given back: 350

Asked: Try CC(=O)N[C@@H]1CCC[C@H](C(=O)Nc2cc(-c3cnn4c3CC(C)(C)C4)ccn2)C1 [Example 16] next.
Given back: 28

Asked: Queued: COC1CCc2c(-c3cc(NC(=O)[C@H]4CCC[C@@H](NC(C)=O)C4)ncc3Cl)cnn2C1 (single isomer, unassigned) [Example 70]
Given back: 20

Asked: Now the same for O=C(Nc1cc(-c2cnn3c2CCCC3)ncn1)[C@H]1C[C@H](O)C1 [Example 29]
Given back: 7540

Asked: And CC(=O)N[C@@H]1CCC[C@H](C(=O)Nc2cc(-c3cnn4c3CCC4)c(Cl)cn2)C1 [Example 10] ?
Given back: 217

Asked: Now this one: Cc1cnc(NC(=O)[C@H]2CCC[C@@H](NC(=O)C3COC3)C2)cc1-c1cnn2c1CC(C)(C)C2 [Example 76]
Given back: 9

Asked: Entry CC(=O)N[C@@H]1CCC[C@H](C(=O)Nc2cc(-c3cnn4c3CCCC4)c(C)cn2)C1 [Example 77] please
Given back: 213

Asked: Next entry: CC(=O)N[C@@H]1CCC[C@H](C(=O)Nc2cc(-c3cnn4c3CC(C)(C)C4O)c(Cl)cn2)C1 (some centres unmarked) [Example 82]
Given back: 22

Asked: Then this molecule: CC(=O)N[C@@H]1CCC[C@H](C(=O)Nc2cc(-c3cnn4c3CC(C)(C)C4)c(C#N)cn2)C1 [Example 39]
Given back: 62

Asked: Param item: CC(=O)N[C@H]1CCC[C@@H](C(=O)Nc2cc(-c3cnn4c3CC(C)(C)C4)c(F)cn2)C1 [Example 81]
Given back: 554

Asked: Cool, now O=C(Nc1cc(-c2cnn3c2CCCC3)c(Cl)cn1)[C@H]1CCC[C@@H](NC(=O)[C@H]2CCOC2)C1 [Example 38]
Given back: 28

Asked: // query: CC1(C)Cc2c(-c3ccnc(NC(=O)[C@H]4CCC[C@@H](NC(=O)C5(O)CC5)C4)c3)cnn2C1 [Example 17]
Given back: 36

Asked: CC1(C)CCn2ncc(-c3cc(NC(=O)[C@H]4CCC[C@@H](N)C4)ncc3F)c2C1 [Example 51a] ?
Given back: 148

Asked: Okay, and CC(=O)N[C@@H]1CCC[C@H](C(=O)Nc2cc(-c3cnn4c3CCC(C)C4)c(Cl)cn2)C1 (single isomer, unassigned) [Example 69] ?
Given back: 246

Asked: What do we get for O=C(Nc1cc(-c2cnn3c2CCCC3)c(Cl)cn1)[C@H]1C[C@@H](O)C1 [Example 4] ?
Given back: 170
